Ref: paper PMC12416549

system: T1, TNFR1 (Homo sapiens, UniProt P19438)
T1 chain: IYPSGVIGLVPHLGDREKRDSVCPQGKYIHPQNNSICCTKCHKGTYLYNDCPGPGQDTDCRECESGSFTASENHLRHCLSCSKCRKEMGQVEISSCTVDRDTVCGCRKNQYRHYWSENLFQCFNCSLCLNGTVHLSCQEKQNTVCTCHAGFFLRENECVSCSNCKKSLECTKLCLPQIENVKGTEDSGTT
assay.procedure: yeast display SC50
measured.property: apparent Kd (screen) (nM)

Use the examples below as a reference point.
K11R (designed binder) SMEEEVEKAAREYEKKKKEAIEKHLEKLKAKDKEAAERFLKELEEAAKEYAKDEAKTMSEEEAKRRAKKYKEKVLLSELSEEEQKEIKEAEEKLVRTILKYVEEAAK ... 0.593
K23V (designed binder) SMEEEVEKAAKEYEKKKKEAIEVHLEKLKAKDKEAAERFLKELEEAAKEYAKDEAKTMSEEEAKRRAKKYKEKVLLSELSEEEQKEIKEAEEKLVRTILKYVEEAAK ... 0.869
E83C (designed binder) SMEEEVEKAAKEYEKKKKEAIEKHLEKLKAKDKEAAERFLKELEEAAKEYAKDEAKTMSEEEAKRRAKKYKEKVLLSELSEECQKEIKEAEEKLVRTILKYVEEAAK ... 0.446
K16E (designed binder) SMEEEVEKAAKEYEKEKKEAIEKHLEKLKAKDKEAAERFLKELEEAAKEYAKDEAKTMSEEEAKRRAKKYKEKVLLSELSEEEQKEIKEAEEKLVRTILKYVEEAAK ... 1.54
E14D (designed binder) SMEEEVEKAAKEYDKKKKEAIEKHLEKLKAKDKEAAERFLKELEEAAKEYAKDEAKTMSEEEAKRRAKKYKEKVLLSELSEEEQKEIKEAEEKLVRTILKYVEEAAK ... 1.16

(P) E42F (designed binder) SMEEEVEKAAKEYEKKKKEAIEKHLEKLKAKDKEAAERFLKFLEEAAKEYAKDEAKTMSEEEAKRRAKKYKEKVLLSELSEEEQKEIKEAEEKLVRTILKYVEEAAK
(Q) E14H (designed binder) SMEEEVEKAAKEYHKKKKEAIEKHLEKLKAKDKEAAERFLKELEEAAKEYAKDEAKTMSEEEAKRRAKKYKEKVLLSELSEEEQKEIKEAEEKLVRTILKYVEEAAK
Query :: Field: lower recorded apparent Kd (screen) (choose P or Q ) Kindly give the label for the entry you pick.
Result :: Q
(Q: 2.73 nM, P: 12.5 nM)
